system: Botrytis cinerea; assay: Test A: tomato Botrytis, preventive spray on tomato seedlings, visual disease rating; details: tomato Botrytis; 100 = 100% disease control, 0 = no disease control relative to the controls
Exercise: state measured Test A rating (disease control) for each of the molecules provided.
Give bare numbers, in %.

Solved cases (5 shown):
>  <SMILES_STR>
COc1ccc(-c2c(C)nn(C)c2Nc2ccc(F)cc2F)c(Cl)c1

>  <UNITS_LABEL>
%

>  <READOUT_VALUE>
98

$$$$
>  <SMILES_STR>
Cc1nn(C)c(Nc2ccc(Br)cc2F)c1-c1ccc(F)cc1F

>  <UNITS_LABEL>
%

>  <READOUT_VALUE>
100

$$$$
>  <SMILES_STR>
COc1cc(Cl)c(Nc2c(-c3ccc(F)cc3Br)c(C)nn2C)c(Cl)c1

>  <UNITS_LABEL>
%

>  <READOUT_VALUE>
98

$$$$
>  <SMILES_STR>
Cc1nn(C)c(Nc2c(Cl)cc(Br)cc2Cl)c1-c1ccc(F)cc1Br

>  <UNITS_LABEL>
%

>  <READOUT_VALUE>
0

$$$$
>  <SMILES_STR>
COc1cc(F)c(-c2c(C)nn(C)c2Oc2c(F)cccc2F)c(F)c1

>  <UNITS_LABEL>
%

>  <READOUT_VALUE>
100

$$$$

Hi team, please reply with Test A rating (disease control) for each item in this list.
1. Cc1nn(C)c(Nc2ccc(Cl)cc2F)c1-c1ccc(F)cc1F
2. COc1cc(F)c(Nc2c(-c3ccc(F)cc3F)c(C)nn2C)c(F)c1

**Result**
100
100

Hi team, please reply with Test A rating (disease control) for each item in this list.
1. COc1cc(F)c(-c2c(C)nn(C)c2Oc2c(F)cc(Br)cc2F)c(F)c1
2. COc1ccc(Nc2c(-c3ccc(F)cc3F)c(C)nn2C)c(Cl)c1
3. Cc1nn(C)c(Oc2c(F)cc(C#N)cc2F)c1-c1ccccc1F
4. Cc1nn(C)c(Nc2ccc(Cl)cc2Cl)c1-c1c(F)cccc1F
5. Cc1nn(C)c(Nc2c(F)cc(C#N)cc2F)c1-c1c(F)cccc1F
6. Cc1nn(C)c(Nc2c(F)cc(Cl)cc2F)c1-c1ccc(Cl)cc1Cl
7. Cc1nn(C)c(Nc2ccc(C#N)cc2Cl)c1-c1ccc(F)cc1Cl

**Result**
[99, 99, 99, 100, 99, 100, 99]

Reference source: patent US20170150719A1
